Source: patent US20220356229A1

# study.target: SARS-CoV-2 full length Spike protein, lineage B.1.351 (SARS-CoV-2)
If the reported bead assay binding signal equals or exceeds 800, assign met. If not, assign not met.

Please review the following examples before continuing.
antibody 1538 (antibody, V domains shown) VH: EVQLLESGGGLVQPGGSLRLSCAASGFTFSSYAMSWVRQAPGKGLEWVSGISDSGGSTYYADYVKGRFTISRDNSKDTLYLQMNSLRAEDTAVYYCAKDRGNEYALTHYYYYAMDVWGQGTTVTVSS VL: DIQMTQSPSSLSASVGDRVTITCRASQSISSYLNWYQQKPGKAPKLLIYAAYSLQSGVPSRFSGGGSGTDFTLTISSLQPEDFATYFCQQSYSTPITFGQGTRLEIKR	met
antibody 1037 (antibody, V domains shown) VH: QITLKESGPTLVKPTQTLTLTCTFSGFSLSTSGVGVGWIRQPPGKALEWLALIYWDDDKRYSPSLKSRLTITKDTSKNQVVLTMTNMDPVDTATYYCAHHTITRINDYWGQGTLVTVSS VL: QSALTQPASVSGSPGQSITISCTATSSDVGAYNYVSWYQQHPGKAPKLMIYDVSKRPSGVSNRFSGSKSGNTASLTISGLQAEDEADYYCSSYTSSSTVFGGGTKLTVLG	met
antibody 923 (antibody, V domains shown) VH: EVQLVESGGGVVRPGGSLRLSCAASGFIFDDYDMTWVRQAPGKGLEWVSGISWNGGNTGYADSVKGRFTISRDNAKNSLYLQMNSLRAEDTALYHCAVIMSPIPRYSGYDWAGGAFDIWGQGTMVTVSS VL: SSELTQDPAVSVALGQTVRITCQGDSLRSYYASWYQQKPGQVPILVIYDKNNRPSGIPDRFSGSSSGNTASLTITGAQAEDEADYYCNSRDSSGNAVVFGGGTKLTVLG	not met
antibody 1404 (antibody, V domains shown) VH: QITLKESGPTLVKPTQTLTLTCTFSGFSLSISGVGVGWLRQPPGKALEWLALIYWDDDKRYSPSLKSRLTISKDTSKNQVVLKMTNIDPVDTATYYCAHHSISTIFDHWGQGTLVTVSS VL: QSALTQPASVSGSPGQSITISCTATSSDVGDYNYVSWYQQHPGKAPKLMIFEVSDRPSGISNRFSGSKSGNTASLTISGLQAEDEADYYCSSYTTSSAVFGGGTKLTVLG	met

Pending binder:
Task: Textbook exercise: given the entry antibody 851 (antibody, V domains shown) VH: QITLKESGPTLVKPTQTLTLTCTFSGFSLSTNGVGMGWIRQPPGKALEWLALIYWDDDQFYSPSLKSRLTITRDTSKNQVVLTMTNMDPVDTATYYCAQAFYESFGFYSWGQGTLVTVSS VL: NFMLTQPHSVSESPGKTVIISCTRSIGSIASNYVQWYQQRPGSAPTIVVFEDNERPSGVPDRFSGSIDRSSNSASLTISGLKTEDEADYYCQSYDGSSELVFGGGTKLTVLG , state whether its bead assay binding signal is greater than or equal to 800.
Result: not met
